- experimental-system: TDP-43 1-260 (Homo sapiens)
- Sequence (Q13148 1-260): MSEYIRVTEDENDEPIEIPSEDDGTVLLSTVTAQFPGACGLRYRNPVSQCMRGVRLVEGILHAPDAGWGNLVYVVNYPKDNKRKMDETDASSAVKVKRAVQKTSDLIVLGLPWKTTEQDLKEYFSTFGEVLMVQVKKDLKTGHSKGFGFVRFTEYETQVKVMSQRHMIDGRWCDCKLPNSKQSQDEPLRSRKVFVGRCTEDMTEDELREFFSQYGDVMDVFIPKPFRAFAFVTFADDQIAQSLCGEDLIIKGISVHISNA
- procedure-text: TDP-43 alpha-screen assay with bt-TAR32
- Format: binding
- conditions-used: bt-TAR32 0.125 nM; 3 h at room temperature; read-out: Activity (μM) in the TDP-43-DNA alpha-screen assay
test-readout: IC50 (µM)
Your answer is read as µM, so omit the unit and give the number.

Enquiry: Name the recorded IC50 for COc1ccc(-c2cc(NCCCN(C)C)cc(-c3ccc(OCCCN(C)C)nc3)n2)cc1 .
Return: 0.72

Enquiry: Name the recorded IC50 for COc1ccc(-c2cc(NCCCN3CCCCC3)cc(-c3cc(OC)cc(OC)c3)n2)cc1 .
Return: 6.93

Enquiry: Name the recorded IC50 for COc1ccc(-c2cc(NCCCN(C)CCCN)cc(-c3ccc(N4CCN(C(=O)OC(C)(C)C)CC4)cc3)n2)cc1 .
Return: 0.17

Enquiry: Name the recorded IC50 for N[C@H]1C[C@H](Nc2cc(-c3ccc(N4CCNCC4)cc3)nc3ccsc23)C1 .
Return: 0.16

Enquiry: Name the recorded IC50 for COc1ccc(-c2cc(NCCCN(C)C)cc(-c3ccc(N4CCOCC4)cc3)n2)cc1 .
Return: 2.04

Enquiry: Name the recorded IC50 for COc1ccc(-c2cc(N[C@H]3C[C@H](N)C3)cc(-c3cccc(OCCN4CCCC4)c3)n2)cc1 .
Return: 0.18

====

- experimental-system: TDP-43 1-260 (Homo sapiens)
- procedure-text: TDP-43 alpha-screen assay with bt-TAR32
- Type: binding
- conditions-used: bt-TAR32 0.125 nM; 3 h at room temperature; read-out: Activity (μM) in the TDP-43-DNA alpha-screen assay
Hi all, reminder that labels come from IC50, split as low value = under 0.2 µM, medium value = from 0.2 µM up to 0.6 µM, high value = 0.6 µM and over

Enquiry: Which class is correct for the following molecule? CN1CCN(c2cncc(-c3cc(NCCCN)cc(-c4ccc(N5CCNCC5)cc4)n3)c2)CC1
Return: high value

Enquiry: Which class is correct for the following molecule? COc1ccc(-c2cc(NC3CCNCC3(F)F)cc(-c3ccc(N4CCN(C)CC4)cc3)n2)cc1 (stereo not shown)
Return: high value

Enquiry: Which class is correct for the following molecule? COc1ccc(-c2cc(NCCCN3CCCCC3)cc(C3=CCNCC3)n2)cc1
Return: high value

Enquiry: Which class is correct for the following molecule? COc1ccc(-c2cc(NCCCN)cc(-n3cc4c(n3)CNC4)n2)cc1
Return: medium value

Enquiry: Which class is correct for the following molecule? COc1ccc(-c2cc(NC3CCNCC3)cc(-c3ccc(N4CCN(C)CC4)cc3)n2)cc1
Return: low value

Enquiry: Which class is correct for the following molecule? COc1ccc(-c2cc(NCCOCCN)cc(-c3ccc(N4CCNCC4)cc3)n2)cc1
Return: medium value

Enquiry: Which class is correct for the following molecule? COc1ccc(-c2cc(NCCCN(C)CCCN)cc(-c3ccc(N4CCN(C)CC4)cc3)n2)cc1 [Example 23]
Return: low value

Enquiry: Which class is correct for the following molecule? COc1ccc(-c2cc(NCCCN(C)C)cc(-c3cccc(OCCCN(C)C)c3)n2)cc1
Return: low value

Enquiry: Which class is correct for the following molecule? COc1ccc(-c2cc(N[C@H]3CC[C@H](N)CC3)cc(-c3cccc(OCCN(C)C)c3)n2)cc1
Return: low value

Enquiry: Which class is correct for the following molecule? CN(C)CCCNc1cc(-c2ccc(OCCn3cccn3)cc2)nc2ccccc12
Return: medium value

Enquiry: Which class is correct for the following molecule? COc1ccc(-c2cc(NCCCOCCCN)cc(-c3ccc(N4CCNCC4)cc3)n2)cc1
Return: high value

Enquiry: Which class is correct for the following molecule? COc1ccc(-c2cc(NCCCN3CCC4NCCC43)cc(-c3ccc(N4CCNCC4)cc3)n2)cc1 (stereo not shown)
Return: high value

Enquiry: Which class is correct for the following molecule? COc1ccc(-c2cc(NCCCN(C)CCCN)cc(-c3cnn(C4CCN(C)CC4)c3)n2)cc1
Return: low value

Enquiry: Which class is correct for the following molecule? COc1ccc(-c2cc(NCCCN(C)CCCN)cc(-c3ccc(CN4CCCC4)cc3)n2)cc1
Return: low value

Enquiry: Which class is correct for the following molecule? COc1ccc(-c2cc(NCCCN(C)C)cc(-c3ccc(OCCCN(C)C)cc3)n2)cc1
Return: medium value
